Documented Cmax across a set of compounds
assay: Drug-drug interaction study between TRX and CVC in healthy and healthy but overweight to obese subjects (plasma pharmacokinetics, tolerability); assay type: in vivo, human; conditions: human, plasma, oral, Day 14, dosed alone; plasma; TRX 60 μg, CVC 150 mg daily; read-out: steady-state Cmax,ss
Please respond with the number in ng/mL and leave the unit unwritten.

SAMPLE_SMILES	VALUE_UNITS	VALUE_REPORTED
O=C(O)c1cc(F)c2nc(N3[C@@H]4CC[C@H]3C[C@@H](OCc3c(-c5ccccc5OC(F)(F)F)noc3C3CC3)C4)sc2c1	ng/mL	1.77

**Q:** Request the reported Cmax associated with CCCCOCCOc1ccc(-c2ccc3c(c2)/C=C(/C(=O)Nc2ccc([S@@+]([O-])Cc4cncn4CCC)cc2)CCCN3CC(C)C)cc1
**A:** 778

###

assay: Drug-drug interaction study between TRX and CVC in healthy and healthy but overweight to obese subjects (plasma pharmacokinetics, tolerability); assay type: in vivo, human; conditions: human, plasma, oral, Day 1, dosed alone; plasma; TRX 60 μg, CVC 150 mg, with standard breakfast; read-out: area under the concentration-time curve (AUC0-24 h)
Documented AUC(0-t) across a set of molecules
Please respond with the number in ng·h/mL and leave the unit unwritten.

MOLECULE	VALUE_UNITS	AUC(0-t)
CCCCOCCOc1ccc(-c2ccc3c(c2)/C=C(/C(=O)Nc2ccc([S@@+]([O-])Cc4cncn4CCC)cc2)CCCN3CC(C)C)cc1 [CVC]	ng·h/mL	4640

Consider now this further molecule.
**Q:** Request the reported AUC(0-t) associated with O=C(O)c1cc(F)c2nc(N3[C@@H]4CC[C@H]3C[C@@H](OCc3c(-c5ccccc5OC(F)(F)F)noc3C3CC3)C4)sc2c1 [TRX]
**A:** 17.9

###

assay: Drug-drug interaction study between TRX and CVC in healthy and healthy but overweight to obese subjects (plasma pharmacokinetics, tolerability); format: in vivo, human; details: human, plasma, oral, Day 1, dosed alone; plasma; TRX 60 μg, CVC 150 mg, with standard breakfast; read-out: observed peak drug concentration (Cmax)
Documented Cmax across a set of compounds
Please respond with the number in ng/mL and leave the unit unwritten.

**Q:** Request the reported Cmax associated with O=C(O)c1cc(F)c2nc(N3[C@@H]4CC[C@H]3C[C@@H](OCc3c(-c5ccccc5OC(F)(F)F)noc3C3CC3)C4)sc2c1
**A:** 1.46

**Q:** Request the reported Cmax associated with CCCCOCCOc1ccc(-c2ccc3c(c2)/C=C(/C(=O)Nc2ccc([S@@+]([O-])Cc4cncn4CCC)cc2)CCCN3CC(C)C)cc1
**A:** 450
